System: HTT mRNA
testName: RT-qPCR splicing assay, HTT mRNA canonical (CJ) and alternative (AJ) junction
Assay type: cell-based, human
measurementConditions: Homo sapiens, HTT canonical junction mRNA, RT-qPCR; read-out: HTT CJ (decrease in CJ mRNA levels, IC50)
pIC50: −log10 of the molar value. Counter-ions that a name gives are not always drawn.
Each entry below lists one item and its recorded pIC50 value.

Cc1cn2cc(-c3ccc4nc(C5CCNCC5)ccc4n3)c(O)c(C)c2n1	6.00 to 7.00

[ask] Look up pIC50: C[C@@H]1CN(c2ccc3nc(-c4cc5cn(C)nc5cc4O)ncc3c2)C[C@H](C)N1 [Compound 751, hydrochloride]
[reply] < 5.00

[ask] Look up pIC50: CNC(=O)c1nc(-c2cc3cn(C)nc3c(C)c2O)nc2ccc(N3CCNCC3)nc12
[reply] 5.00 to 6.00

* * *

Test system: HTT
testName: HiBiT protein abundance assay, HTT (K562 HiBiT knock-in)
Type: cell-based, human
measurementConditions: HiBiT knock-in K562 cells, 24 hours, top dose 10 μM
pIC50: −log10 of the molar value.
propertyLabel: pIC50

CN[C@H]1CCN(c2ccc3nc(-c4cc(C#N)c5nc(C)cn5c4)ncc3n2)C1	5.00 to 6.00
Cc1nc2c(F)c(O)c(-c3ccc4nc(N5CC[C@@H](NC(C)(C)C)C5)ccc4n3)cc2o1 (single isomer, unassigned)	> 7.00
Cn1cc2cc(-c3ccc4nc(N5CC[C@@H](N)C5)ccc4n3)c(O)c(F)c2n1 (single isomer, unassigned)	> 7.00
Cn1cc2cc(-c3ccc4nc(C5CCNCC5)ccc4n3)c(O)cc2n1	> 7.00
C[C@@H]1CN(c2cc(F)c3nc(-c4cc(F)c5nn(C)cc5c4)ccc3c2)C[C@H](C)N1	6.00 to 7.00
C[C@@H]1CN(c2ccc3nc(-c4cc5cn(C)nc5c(F)c4O)nc(C(=O)NCCO)c3c2)C[C@H](C)N1	5.00 to 6.00

[ask] Please provide the recorded pIC50 for Cc1c(O)c(-c2ccc3nc(N4CCC(NC5(C)CC5)C4)ccc3n2)cc2cn(C)nc12 (stereo not shown) , tested on HTT.
[reply] > 7.00

* * *

System: K562 cells
testName: Cell Titer Glo 2.0 cell viability (toxicity) assay, K562
measurementConditions: 500 cells/well, 72 hours
propertyLabel: Effect of Exemplary Compounds on Cell Viability, K562

CNC(=O)c1nc(-c2cc3cn(C)nc3c(F)c2O)nc2ccc(N3CCNC4(CC4)C3)cc12	A (A represents <100 nM)
Cn1cc2cc(-c3ccc4nc(N5CCC(NC6(C)CC6)C5)ccc4n3)c(O)cc2n1 (centres unmarked)	A (A represents <100 nM)

* * *

Tested on: MYB mRNA
testName: RT-qPCR splicing assay, MYB mRNA canonical (CJ) and alternative (AJ) junction
Assay type: cell-based, human
measurementConditions: Homo sapiens, RT-qPCR, MYB alternative junction mRNA increase; read-out: MYB AJ (increase in alternative junction mRNA, AC50)
propertyLabel: AC50

C[C@@H]1CN(c2ccc3nc(-c4cc(F)c5nn(C)cc5c4)ncc3c2)C[C@H](C)N1	0.1 to 1 µM
Cc1c(O)c(-c2nc(C(N)=O)c3cc(N4C[C@H](C)N[C@@H](C)C4)ccc3n2)cc2cn(C)nc12	< 0.1 µM

[ask] Look up AC50: C[C@@H]1CN(c2ccc3nc(-c4cc5cn(C)nc5cc4O)nc(C4CCC4)c3c2)C[C@H](C)N1
[reply] 1 to 10 µM

[ask] Look up AC50: Cc1nc2c(F)cc(-c3ncc4cc(N5C[C@@H](C)N[C@@H](C)C5)ccc4n3)cn2c1F
[reply] 1 to 10 µM

Cited source for all entries: patent US20250092065A1
